Target under test: T1, human GIP receptor (human, UniProt P48546 22-466)
T1 sequence (looked up): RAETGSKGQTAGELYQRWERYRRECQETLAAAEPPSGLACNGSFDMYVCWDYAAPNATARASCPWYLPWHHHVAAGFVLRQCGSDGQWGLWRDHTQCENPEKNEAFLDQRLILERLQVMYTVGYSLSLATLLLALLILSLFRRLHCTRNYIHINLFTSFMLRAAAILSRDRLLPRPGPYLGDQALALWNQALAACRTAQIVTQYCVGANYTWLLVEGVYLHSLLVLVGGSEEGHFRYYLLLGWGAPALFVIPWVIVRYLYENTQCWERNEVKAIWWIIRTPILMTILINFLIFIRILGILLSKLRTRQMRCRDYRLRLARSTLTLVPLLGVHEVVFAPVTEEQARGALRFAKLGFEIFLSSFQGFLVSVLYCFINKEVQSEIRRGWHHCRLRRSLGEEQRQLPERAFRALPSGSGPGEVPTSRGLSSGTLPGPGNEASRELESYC
Test summary: cell-based or functional assay
Starred links: 1 amine or outer side, 2 acyl side, 3 side chain; linkers in the order of their positions; H or OH if unused. Non-standard residues stand in square brackets, D forms with d. Groups on a side chain read outwards from the residue. No end group written: not given here. *: point of attachment. C20 diacid = O=C(O)CCCCCCCCCCCCCCCCCCC(=O)*; γGlu = O=C(O)[C@H](CCC(=O)[*:2])N[*:1]; εLys = N[C@@H](CCCCN[*:1])C(=O)[*:2]; Aib = CC(C)(N)C(=O)O
Reported property: EC50, CreLuc assay, 0.5% hP (nM)

binder="YXEGTFTSDYSIXLEKQAQXAFVEWLIKGGPSSGIELRHFLNHLTRQRY (Aib at 2, 13, 20; K28 side chain: C20DA-gGlu-gGlu-gGlu-gGlu-gGlu-gGlu-eLys; C-terminal NH2) [Compound 2]" reported_property="EC50, CreLuc assay, 0.5% hP" endpoint_unit=nM result_value=0.35
binder="Y[Aib]EGTFTSDYSI[Aib]LEKQAQ[Aib]AFVEWLIK([εLys-γGlu-γGlu-γGlu-γGlu-γGlu-C20 diacid])GGPESPASLRHYYNWLTRQRY-NH2 (also: TFA salt) [Compound 70]" reported_property="EC50, CreLuc assay, 0.5% hP" endpoint_unit=nM result_value=0.28
binder="Y[Aib]EGTFTSDYSI[Aib]LEKQAQ[Aib]AFVQWLIK([εLys-γGlu-γGlu-γGlu-γGlu-γGlu-C20 diacid])GGPESGASLRHYYNWLTRQRY-NH2 (also: TFA salt) [Compound 61]" reported_property="EC50, CreLuc assay, 0.5% hP" endpoint_unit=nM result_value=0.36
